Numbers sourced from BindingDB's records for doi:10.1021/acsmedchemlett.5b00050.

Recorded pIC50 for the following compounds
Assay: Inhibition of Tel-fused TRKA (unknown origin) overexpressed in mouse BA/F3 cells assessed as inhibition of cell proliferation after 48 hrs by luciferase reporter gene assay in absence of recombinant mouse IL3
pIC50: −log10 of the molar value.

{"Compound String": "OCc1ccc(-c2cnc3ccc(NCc4cccc(F)c4)nn23)cc1", "pIC50": 7.12}
{"Compound String": "O=C(Nc1ccc(-c2cnc3ccc(NCc4cccc(F)c4)nn23)cc1)C1CCOCC1", "pIC50": 8.22}
{"Compound String": "O=C(O)CN1CCN(c2cc(-c3cnc4ccc(N5CCC[C@@H]5c5cccc(F)c5)nn34)ccn2)CC1", "pIC50": 9.00}
{"Compound String": "OC1CCN(c2cc(-c3cnc4ccc(N5CCC[C@@H]5c5cccc(F)c5)nn34)ccn2)CC1", "pIC50": 8.40}
{"Compound String": "N#Cc1ccc(-c2cnc3ccc(NCc4cccc(F)c4)nn23)cc1", "pIC50": 7.30}
